# Test system: SK-MEL-2
# TEST DESCRIPTION: NCI tumour cell line growth inhibition, 48 h
Active and inactive are the calls of the source. Cut-off read from the data, not from the text of the source: active = GI50 up to about 1.1 µM and inactive = higher.
Permitted responses: True for active, False for inactive

Input line: Which result was noted for this compound in the test: CCCCCCc1cc2cc(-c3cn4c(n3)sc3ccccc34)c(=O)oc2cc1O
Output line: False

Input line: Which result was noted for this compound in the test: CCCC(=O)N[C@H]1CCc2cc(OC)c(OC)c(OC)c2-c2ccc(SC)c(=O)cc21
Output line: True

Input line: Which result was noted for this compound in the test: COc1ccc(/C=C2\CN(C)C/C(=C\c3ccc(OC)c(OC)c3OC)C2=O)c(OC)c1OC
Output line: True

Input line: Which result was noted for this compound in the test: Cn1c(S)nnc1CNc1ccc(-c2nnc(S)n2C)cc1
Output line: False

Input line: Which result was noted for this compound in the test: CCOC(=O)/C=C/c1ccccn1
Output line: False

Input line: Which result was noted for this compound in the test: O=C(O)c1cc(-c2ccncc2)nc2ccccc12
Output line: False

Input line: Which result was noted for this compound in the test: C#CC[N+](C)(CC#C)CC#C
Output line: False

Input line: Which result was noted for this compound in the test: O/N=C1/C(=C/c2ccc(Br)cc2)CCCC1C(NO)c1ccc(Br)cc1 (stereo unspecified)
Output line: False

Input line: Which result was noted for this compound in the test: C1=CCN(c2ccccc2)CC1
Output line: False

Input line: Which result was noted for this compound in the test: N#CC1(C#N)C(c2ccccc2)NC23CCCCC2C1(C#N)C(=O)N3 (stereo unspecified)
Output line: False

Input line: Which result was noted for this compound in the test: O=c1[nH]c(N/N=C\C(O)C(O)C(O)C(O)CO)nc2ccccc12 (stereo unspecified)
Output line: False
